system: α1d-AR (Homo sapiens, UniProt P25100)
Construct: expressed in transfected cells; host or cells: COS-7 cells (membranes)
Sequence (P25100 whole entry): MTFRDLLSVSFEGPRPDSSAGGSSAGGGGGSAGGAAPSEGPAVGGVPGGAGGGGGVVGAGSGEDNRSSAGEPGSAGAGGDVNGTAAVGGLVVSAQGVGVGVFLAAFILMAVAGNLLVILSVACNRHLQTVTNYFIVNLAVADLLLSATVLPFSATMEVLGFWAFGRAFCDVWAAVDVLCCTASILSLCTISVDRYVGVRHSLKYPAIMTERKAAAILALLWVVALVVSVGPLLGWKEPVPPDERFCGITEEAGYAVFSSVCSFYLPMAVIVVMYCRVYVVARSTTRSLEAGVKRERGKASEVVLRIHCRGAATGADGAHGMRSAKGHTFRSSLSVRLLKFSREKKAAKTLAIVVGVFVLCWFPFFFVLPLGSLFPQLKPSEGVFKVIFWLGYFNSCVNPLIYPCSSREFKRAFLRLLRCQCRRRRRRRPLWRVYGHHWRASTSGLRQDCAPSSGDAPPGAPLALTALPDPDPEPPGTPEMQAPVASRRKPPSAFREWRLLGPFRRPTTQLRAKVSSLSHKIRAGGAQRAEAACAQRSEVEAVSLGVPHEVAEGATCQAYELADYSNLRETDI
measurement.notes: α1-Adrenergic receptor radio-ligand binding assay, α1d subtype
assay.context: 125I-HEAT, membranes of COS-7 cells transfected with α1d subtype, rt 1 hr; read-out: Receptor Binding, Ki α1d-AR

query.smiles | Ki (nM)
COc1ccc(S(=O)(=O)N[C@H]2CC[C@H](N3CCC(c4ccccc4OCC(F)F)CC3)CC2)cc1OC | 86
COc1ccc(S(=O)(=O)N[C@H]2CC[C@H](N3CCC(c4cc(F)ccc4OC(C)C)CC3)CC2)cc1OC | 53
COc1ccc(S(=O)(=O)N[C@H]2CC[C@@H](N3CCC(c4ccccc4OC4CC4)CC3)CC2)cc1OC | 2
COc1ccc(S(=O)(=O)N[C@H]2CC[C@H](N3CCC(c4ccc(F)cc4OC(C)C)CC3)CC2)cc1OC | 60

====

system: α1a-AR (Homo sapiens, UniProt P35348)
Construct: expressed in transfected cells; host or cells: COS-7 cells (membranes)
Sequence (P35348 1-455 isoform P35348-4): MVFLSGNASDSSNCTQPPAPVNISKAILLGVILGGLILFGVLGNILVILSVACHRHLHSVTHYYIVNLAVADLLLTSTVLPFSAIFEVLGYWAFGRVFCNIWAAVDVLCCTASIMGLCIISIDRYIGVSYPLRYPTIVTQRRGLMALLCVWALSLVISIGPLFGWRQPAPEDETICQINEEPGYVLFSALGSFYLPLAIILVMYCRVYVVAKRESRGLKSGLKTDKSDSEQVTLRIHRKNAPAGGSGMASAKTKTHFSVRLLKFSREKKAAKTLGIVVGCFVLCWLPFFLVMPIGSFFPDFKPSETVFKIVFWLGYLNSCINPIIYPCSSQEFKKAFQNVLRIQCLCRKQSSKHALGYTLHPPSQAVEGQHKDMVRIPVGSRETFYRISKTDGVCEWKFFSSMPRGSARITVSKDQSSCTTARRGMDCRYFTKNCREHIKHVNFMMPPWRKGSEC
measurement.notes: α1-Adrenergic receptor radio-ligand binding assay, α1a subtype
assay.context: 125I-HEAT, membranes of COS-7 cells transfected with α1a subtype, rt 1 hr; read-out: Receptor Binding, Ki α1a-AR
pKi: −log10 of the molar value.
pKi reference
observation.type: pKi

molecule | observation.type | measurement
COc1ccc(S(=O)(=O)N[C@H]2CC[C@@H](N3CCC(c4ccc(F)cc4OC(C)C)CC3)CC2)cc1OC [Cpd 31] | pKi | 7.80
COc1ccc(S(=O)(=O)N[C@H]2CC[C@@H](N3CCC(c4ccccc4OCC(F)F)CC3)CC2)cc1OC [Cpd 29] | pKi | 7.92
O=S(=O)(N[C@H]1CC[C@@H](N2CCC(c3ccccc3OCC(F)(F)F)CC2)CC1)c1cccc(OC(F)F)c1 [Cpd 23] | pKi | 8.15
COc1ccc(S(=O)(=O)N[C@H]2CC[C@H](N3CCC(c4ccc(F)cc4OC(C)C)CC3)CC2)cc1OC [Cpd 32] | pKi | 7.64
O=S(=O)(N[C@H]1CC[C@@H](N2CCC(c3ccccc3OC3CC3)CC2)CC1)c1ccc(Cl)cc1Cl [Cpd 15] | pKi | 7.10
O=S(=O)(N[C@H]1CC[C@H](N2CCC(c3ccccc3OC3CC3)CC2)CC1)c1ccc(Cl)cc1Cl [Cpd 16] | pKi | 7.52
COc1ccc(S(=O)(=O)N[C@H]2CC[C@@H](N3CCC(c4ccccc4OC4CC4)CC3)CC2)cc1OC [Cpd 7] | pKi | 9.04

====

system: α1d-AR (Homo sapiens)
Construct: expressed in transfected cells; host or cells: COS-7 cells (membranes)
measurement.notes: α1-Adrenergic receptor radio-ligand binding assay, α1d subtype
pKi: −log10 of the molar value.
pKi reference

query.smiles | pKi
CC(C)Oc1ccccc1C1CCN([C@H]2CC[C@H](NS(=O)(=O)c3ccc(F)c(F)c3)CC2)CC1 | 7.05
COc1ccc(S(=O)(=O)N[C@H]2CC[C@@H](N3CCC(c4ccccc4OC(C)C)CC3)CC2)cc1OC | 8.74
COc1ccc(S(=O)(=O)N[C@H]2CC[C@@H](N3CCC(c4ccccc4OCC(F)(F)F)CC3)CC2)cc1OC | 8.14
COc1ccc(Cl)cc1S(=O)(=O)N[C@H]1CC[C@@H](N2CCC(c3ccccc3OCC(F)(F)F)CC2)CC1 | 8.82

====

melting point reference

query.smiles | melting point [°C]
CC(C)Oc1ccccc1C1CCN([C@H]2CC[C@@H](NS(=O)(=O)c3ccc(F)c(F)c3)CC2)CC1 | 176
COc1ccc(Cl)cc1S(=O)(=O)N[C@H]1CC[C@H](N2CCC(c3ccccc3OCC(F)(F)F)CC2)CC1 | 197
COc1ccc(S(=O)(=O)N[C@H]2CC[C@@H](N3CCC(c4ccccc4OCC(F)F)CC3)CC2)cc1OC | 219
O=S(=O)(N[C@H]1CC[C@@H](N2CCC(c3ccccc3OCC(F)(F)F)CC2)CC1)c1cccc(OC(F)F)c1 | 105
COc1ccc(Cl)cc1S(=O)(=O)N[C@H]1CC[C@@H](N2CCC(c3ccccc3OCC(F)(F)F)CC2)CC1 | 200
O=S(=O)(N[C@H]1CC[C@@H](N2CCC(c3ccccc3OCC(F)(F)F)CC2)CC1)c1ccc(OC(F)F)cc1 | 196
CC(C)Oc1ccccc1C1CCN([C@H]2CC[C@H](NS(=O)(=O)c3ccc(F)c(F)c3)CC2)CC1 | 239

====

system: α1b-AR (Homo sapiens)
Construct: expressed in transfected cells; host or cells: COS-7 cells (membranes)
Sequence (P35368 1-520): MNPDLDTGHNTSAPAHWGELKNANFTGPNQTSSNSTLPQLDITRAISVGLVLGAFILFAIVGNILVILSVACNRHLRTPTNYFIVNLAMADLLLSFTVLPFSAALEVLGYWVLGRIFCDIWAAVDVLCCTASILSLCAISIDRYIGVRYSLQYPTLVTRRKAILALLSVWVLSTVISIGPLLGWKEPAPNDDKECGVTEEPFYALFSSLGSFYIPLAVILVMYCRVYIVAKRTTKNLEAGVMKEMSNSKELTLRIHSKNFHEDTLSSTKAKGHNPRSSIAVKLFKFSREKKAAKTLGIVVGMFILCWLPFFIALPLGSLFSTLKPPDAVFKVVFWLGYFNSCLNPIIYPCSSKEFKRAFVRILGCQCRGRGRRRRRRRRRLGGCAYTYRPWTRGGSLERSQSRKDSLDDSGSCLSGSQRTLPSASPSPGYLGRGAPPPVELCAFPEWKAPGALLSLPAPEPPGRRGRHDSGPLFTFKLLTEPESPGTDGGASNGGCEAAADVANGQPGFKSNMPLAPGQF
measurement.notes: α1-Adrenergic receptor radio-ligand binding assay, α1b subtype
assay.context: 125I-HEAT, membranes of COS-7 cells transfected with α1b subtype, rt 1 hr; read-out: Receptor Binding, Ki α1b-AR
log10 Ki reference
observation.type: log10 Ki (log10 of the value in nM)

compound | log10 Ki
O=S(=O)(N[C@H]1CC[C@@H](N2CCC(c3ccccc3OC3CC3)CC2)CC1)c1cc(Cl)ccc1F [Cpd 11] | 2.03
COc1ccc(S(=O)(=O)N[C@H]2CC[C@H](N3CCC(c4ccccc4OCC(F)F)CC3)CC2)cc1OC [Cpd 30] | 2.83
O=S(=O)(N[C@H]1CC[C@H](N2CCC(c3ccccc3OC3CC3)CC2)CC1)c1ccc(Cl)cc1Cl [Cpd 16] | 2.61
COc1ccc(S(=O)(=O)N[C@H]2CC[C@H](N3CCC(c4ccccc4OC4CC4)CC3)CC2)cc1OC [Cpd 8] | 2.12
COc1ccc(S(=O)(=O)N[C@H]2CC[C@@H](N3CCC(c4ccccc4OC(C)C)CC3)CC2)cc1OC [Cpd 1] | 2.16
COc1ccc(S(=O)(=O)N[C@H]2CC[C@@H](N3CCC(c4ccccc4OC4CC4)CC3)CC2)cc1OC [Cpd 7] | 2.15
COc1ccc(S(=O)(=O)N[C@H]2CC[C@@H](N3CCC(c4ccccc4OCCF)CC3)CC2)cc1OC [Cpd 27] | 2.55
COc1ccc(S(=O)(=O)N[C@H]2CC[C@H](N3CCC(c4ccccc4OC(C)C)CC3)CC2)cc1OC [Cpd 2] | 2.17
CC(C)Oc1ccccc1C1CCN([C@H]2CC[C@@H](NS(=O)(=O)c3ccc(F)c(F)c3)CC2)CC1 [Cpd 3] | 2.67
COc1ccc(S(=O)(=O)N[C@H]2CC[C@@H](N3CCC(c4ccccc4OCC(F)F)CC3)CC2)cc1OC [Cpd 29] | 2.48
COc1ccc(S(=O)(=O)N[C@H]2CC[C@@H](N3CCC(c4ccc(F)cc4OC(C)C)CC3)CC2)cc1OC [Cpd 31] | 2.84
COc1ccc(S(=O)(=O)N[C@H]2CC[C@H](N3CCC(c4ccc(F)cc4OC(C)C)CC3)CC2)cc1OC [Cpd 32] | 2.81
COc1ccc(S(=O)(=O)N[C@H]2CC[C@H](N3CCC(c4ccccc4OCCF)CC3)CC2)cc1OC [Cpd 28] | 3.64
O=S(=O)(N[C@H]1CC[C@@H](N2CCC(c3ccccc3OC3CC3)CC2)CC1)c1ccc(Cl)cc1Cl [Cpd 15] | 2.92
O=S(=O)(N[C@H]1CC[C@H](N2CCC(c3ccccc3OCC(F)(F)F)CC2)CC1)c1ccc(OC(F)F)cc1 [Cpd 26] | 2.48

Cited source for all entries: patent US7470711B2
